From: patent US20260070987A1

assay-target: equine FcRn (large alpha subunit p51) / equine beta-2-microglobulin complex, biotinylated (equine) (UniProt P30441)
test-description: SPR (Biacore), pH 6
pKd: −log10 of the molar value.

{"binder": "equine IgG1 Y436F (antibody, part only; not given: variable domains, not shown: another chain or arm of the molecule) constant: ASTTAPKVFALAPGCGTTSDSTVALGCLVSGYFPEPVKVSWNSGSLTSGVHTFPSVLQSSGFYSLSSMVTVPASTWTSETYICNVVHAASNFKVDKRIEPIPDNHQKVCDMSKCPKCPAPELLGGPSVFIFPPNPKDTLMITRTPEVTCVVVDVSQENPDVKFNWYMDGVEVRTATTRPKEEQFNSTYRVVSVLRIQHQDWLSGKEFKCKVNNQALPQPIERTITKTKGRSQEPQVYVLAPHPDELSKSKVSVTCLVKDFYPPEINIEWQSNGQPELETKYSTTQAQQDSDGSYFLYSKLSVDRNRWQQGTTFTCGVMHEALHNHFTQKNVSKNPGK", "pKd": 7.90}
